Taken from paper PMC9118553.

test: RT-S9 substrate depletion assay, individual compounds, with IVIVE; details: s9
measured-metric: CLint,S9

>>> result("CCCCCCCCCCCCCCCCS(=O)(=O)O [C16SO3, hexadecylsulfonate]")
"n.s."
>>> result("CCCCCCCCCCCCCCS(=O)(=O)O [C14SO3, tetradecylsulfonate]")
"n.s."
>>> result("CCCCCCCCCCCCCS(=O)(=O)O [C13SO3, tridecylsulfonate]")
"0.45 mL h-1 mg protein-1"

* * *

assay: Baseline screening BCF (0.0125 DMLW, equilibrium partitioning, no biotransformation)
measured-metric: Log difference (baseline BCF vs BCF) (L kg-1 ww)

>>> numeric_result("CCCCCCCCCCc1ccc(S(=O)(=O)O)cc1")
1.99

P. CCCCCCCCCCCOS(=O)(=O)O [C11SO4, undecylsulfate]
Q. CCCCCCCCCCCCCCCCS(=O)(=O)O [C16SO3, hexadecylsulfonate]
Problem: Sorting by Log difference (baseline BCF vs BCF) in descending order, would P or Q appear first? Response format: the label of the selected entry.
Solution: P
